Molecular target: T1, human TL1A extracellular domain with N-terminal HIS and FLAG tag (human, UniProt O95150 72-251)
T1 construct: the whole entry is named; also called TNFSF15
T1 sequence: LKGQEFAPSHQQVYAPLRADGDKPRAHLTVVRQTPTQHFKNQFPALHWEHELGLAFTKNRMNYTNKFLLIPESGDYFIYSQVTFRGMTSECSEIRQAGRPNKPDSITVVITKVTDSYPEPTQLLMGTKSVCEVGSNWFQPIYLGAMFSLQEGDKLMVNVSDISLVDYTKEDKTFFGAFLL
Assay: SPR Run 7, antibody on Protein A, TL1A 5 ug/mL, timepoint 220
readout.kind: TL1A Binding Level (Late) (RU)
Value expressed in RU; do not type the unit.

Reported TL1A Binding Level (Late) for 320-503 (antibody, human IgG1, name in Kabat numbering, V domains shown, full-length human IgG1, lambda) VH: QVQLVQSGAEVKKPGASVKVSCKASGYTFTSYDINWVRQAPGQGLEWMGWLWPNSGNTGYAQKFQGRVTMTADRSTSTAYMELSSLRSEDTAVYYCAREVPETAAFEYWGQGTLVTVSS VL: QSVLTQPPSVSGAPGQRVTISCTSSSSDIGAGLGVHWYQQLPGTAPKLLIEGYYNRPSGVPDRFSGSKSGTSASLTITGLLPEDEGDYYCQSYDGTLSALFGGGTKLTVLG : what is it? 6

Please do the same for 320-554 (antibody, human IgG1, name in Kabat numbering, V domains shown, full-length human IgG1, lambda) VH: QVQLVQSGAEVKKPGASVKVSCKASGYTFTSYDINWVRQAPGQGLEWMGWLNPNSGNLGYAQKFQGRVTMTADRSTSTAYMELSSLRSEDTAVYYCAREVPETAAFEYWGQGTLVTVSS VL: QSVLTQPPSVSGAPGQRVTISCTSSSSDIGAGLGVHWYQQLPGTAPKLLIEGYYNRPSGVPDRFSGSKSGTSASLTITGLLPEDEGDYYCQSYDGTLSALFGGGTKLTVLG as well. 51

Thanks! And 320-544 (antibody, human IgG1, name in Kabat numbering, V domains shown, full-length human IgG1, lambda) VH: QVQLVQSGAEVKKPGASVKVSCKASGYTFTSYDINWVRQAPGQGLEWMGWLNPNSGKTGYAQKFQGRVTMTADRSTSTAYMELSSLRSEDTAVYYCAREVPETAAFEYWGQGTLVTVSS VL: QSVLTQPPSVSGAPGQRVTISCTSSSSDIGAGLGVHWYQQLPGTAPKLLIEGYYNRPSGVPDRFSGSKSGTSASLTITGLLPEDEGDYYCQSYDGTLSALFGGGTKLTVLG ? 112
